- Experimental Target: K-Ras G12D (Homo sapiens, UniProt P01116, G12D)
- Sequence (P01116 1-188 isoform P01116-2 G12D): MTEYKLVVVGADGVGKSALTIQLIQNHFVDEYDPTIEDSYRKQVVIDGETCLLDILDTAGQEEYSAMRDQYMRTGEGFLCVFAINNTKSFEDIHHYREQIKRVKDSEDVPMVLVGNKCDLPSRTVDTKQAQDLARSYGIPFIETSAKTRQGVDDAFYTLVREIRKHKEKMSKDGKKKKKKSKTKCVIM
- Experiment Description: HTRF resonance energy transfer assay, K-Ras G12D / SOS1 interaction
- Run Conditions: HTRF assay of Example 5; read-out: IC50 against K-Ras G12D
Quantity: IC50

| Compound | Quantity | Data Value |
| --- | --- | --- |
| CC1Oc2c(Cl)c(-c3ccc(F)c4sc(N)c(C#N)c34)c(F)c3nc(OC[C@@]45CCCN4C[C@H](F)C5)nc(c23)N(C2CC2)C1C (stereo partly drawn) | IC50 | < 100 nM |
| C[C@H]1CN(CC(F)F)c2nc(OC[C@@]34CCCN3C[C@H](F)C4)nc3c(F)c(-c4ccc(F)c5sc(N)c(C#N)c45)c(Cl)c(c23)O1 | IC50 | < 100 nM |
| CC(CO)N1CCOc2c(Cl)c(-c3ccc(F)c4sc(N)c(C#N)c34)c(F)c3nc(OC[C@@]45CCCN4C[C@H](F)C5)nc1c23 (stereo partly drawn) | IC50 | < 100 nM |

----------
// values below are reported IC50
- Experimental Target: K-Ras G12S (Homo sapiens, UniProt P01116, G12S)
- Sequence (P01116 1-188 isoform P01116-2 G12S): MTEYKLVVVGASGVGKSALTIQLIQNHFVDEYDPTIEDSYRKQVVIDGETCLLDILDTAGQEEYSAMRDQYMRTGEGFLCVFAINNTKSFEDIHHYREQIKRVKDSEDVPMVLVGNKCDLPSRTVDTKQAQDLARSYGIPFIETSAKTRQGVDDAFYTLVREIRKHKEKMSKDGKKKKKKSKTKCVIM
- Experiment Description: HTRF resonance energy transfer assay, K-Ras G12S / SOS1 interaction
- Run Conditions: HTRF assay of Example 5; read-out: IC50 against K-Ras G12S

| Compound | IC50 |
| --- | --- |
| CS(=O)(=O)N1CC1C(=O)NCCN1CCOc2c(Cl)c(-c3ccc(F)c4sc(N)c(C#N)c34)c(F)c3nc(OC[C@@]45CCCN4C[C@H](F)C5)nc1c23 (stereo partly drawn) | < 100 nM |
| CC1COc2c(Cl)c(-c3ccc(F)c4sc(N)c(C#N)c34)c(F)c3nc(OC[C@@]45CCCN4C[C@H](F)C5)nc(c23)N1CC(F)F (single isomer, unassigned) | < 100 nM |
| C[C@H](O)[C@H]1COc2c(Cl)c(-c3ccc(F)c4sc(N)c(C#N)c34)c(F)c3nc(OC[C@@]45CCCN4C[C@H](F)C5)nc(c23)N1 | < 100 nM |

----------
- Test system: SW620 cells
- Experiment Description: Ras cellular assay, growth of cells with K-Ras G12V mutation (CellTiter-Glo)
- Type: cell-based
- Run Conditions: Homo sapiens, SW-620; cell growth, Example 9, G12V mutation; read-out: IC50 against SW620 cells
pIC50: −log10 of the molar value.
// values below are reported pIC50

| Molecule | pIC50 |
| --- | --- |
| N#Cc1c(N)sc2c(F)ccc(-c3c(Cl)c4c5c(nc(OCC67CCCN6C[C@H](F)C7)nc5c3F)N(C3CCCOCC3)CCO4)c12 (some centres unmarked) [Compound 902] | > 5.30 |
| COCC(=O)N1CCC(N2CCOc3c(Cl)c(-c4ccc(F)c5sc(N)c(C#N)c45)c(F)c4nc(OC[C@@]56CCCN5C[C@H](F)C6)nc2c34)C1 (some centres unmarked) [Compound 1134] | > 5.30 |
| CC(C)(O)[C@H]1COc2c(Cl)c(-c3ccc(F)c4sc(N)c(C#N)c34)c(F)c3nc(OC[C@@]45CCCN4C[C@H](F)C5)nc(c23)N1 [Compound 815] | > 5.30 |
| C[C@H]1COc2c(Cl)c(-c3ccc(F)c4sc(N)c(C#N)c34)c(F)c3nc(OC[C@@]45CCCN4C[C@H](F)C5)nc(c23)N1CC(F)F [Compound 1088] | > 5.30 |
| N#Cc1c(N)sc2c(F)ccc(-c3c(Cl)c4c5c(nc(OC[C@@]67CCCN6C[C@H](F)C7)nc5c3F)N(C3(C(F)F)CC3)CCO4)c12 [Compound 1060] | > 5.30 |
| CN(CCN1CCOc2c(Cl)c(-c3ccc(F)c4sc(N)c(C#N)c34)c(F)c3nc(OC[C@@]45CCCN4C[C@H](F)C5)nc1c23)C(=O)[C@@H]1N[C@H]1C1CC1 [Compound 613] | > 5.30 |
| CCC1CC(N2CCOc3c(Cl)c(-c4ccc(F)c5sc(N)c(C#N)c45)c(F)c4nc(OC[C@@]56CCCN5C[C@H](F)C6)nc2c34)CCO1 (some centres unmarked) [Compound 903] | > 5.30 |
| N#Cc1c(N)sc2c(F)ccc(-c3c(Cl)c4c5c(nc(OC[C@@]67CCCN6C[C@H](F)C7)nc5c3F)N(C3CC(NC(=O)C(F)F)C3)CCO4)c12 (some centres unmarked) [Compound 612] | > 5.30 |
| C#Cc1c(F)ccc2cc(O)cc(-c3nc4c5c(nc(OC[C@@]67CCCN6C[C@H](F)C7)nc5c3F)N(C3CCCOC3)CCO4)c12 (some centres unmarked) [Compound 661] | > 5.30 |
| N#Cc1c(N)sc2c(F)ccc(-c3c(Cl)c4c5c(nc(OC[C@@]67CCCN6C[C@H](F)C7)nc5c3F)N[C@@H](C3(O)CC3)CO4)c12 [Compound 1076] | > 5.30 |
| N#Cc1c(N)sc2c(F)ccc(-c3c(Cl)c4c5c(nc(OC[C@@]67CCCN6C[C@H](F)C7)nc5c3F)N([C@H]3CNC[C@@H]3F)CCO4)c12 [Compound 1085] | > 5.30 |
| N#Cc1c(N)sc2c(F)ccc(-c3c(Cl)c4c5c(nc(OC[C@@]67CCCN6C[C@H](F)C7)nc5c3F)N(C3CCCC(O)C3)CCO4)c12 (some centres unmarked) [Compound 854] | > 5.30 |
| N#Cc1c(N)sc2c(F)ccc(-c3c(Cl)c4c5c(nc(OC[C@@]67CCCN6C[C@H](F)C7)nc5c3F)N(C3CCN(C=O)C3)CCO4)c12 (some centres unmarked) [Compound 1052] | > 5.30 |
| C[C@H]1CN(C2CC2)c2nc(OC[C@@]34CCCN3C[C@H](F)C4)nc3c(F)c(-c4ccc(F)c5sc(N)c(C#N)c45)c(Cl)c(c23)O1 [Compound 1044] | > 5.30 |
| N#Cc1c(N)sc2c(F)ccc(-c3c(Cl)c4c5c(nc(OC[C@@]67CCCN6C[C@H](F)C7)nc5c3F)N(CC(F)F)C(CC(F)F)CO4)c12 (some centres unmarked) [Compound 701] | > 5.30 |
| C[C@H]1CN(C23CC(C2)C3)c2nc(OC[C@@]34CCCN3C[C@H](F)C4)nc3c(F)c(-c4ccc(F)c5sc(N)c(C#N)c45)c(Cl)c(c23)O1 [Compound 687] | > 5.30 |
| CC(CO)N1CCOc2c(Cl)c(-c3ccc(F)c4sc(N)c(C#N)c34)c(F)c3nc(OC[C@@]45CCCN4C[C@H](F)C5)nc1c23 (some centres unmarked) [Compound 937] | > 5.30 |
| N#CCC(=O)N1CCC(N2CCOc3c(Cl)c(-c4ccc(F)c5sc(N)c(C#N)c45)c(F)c4nc(OC[C@@]56CCCN5C[C@H](F)C6)nc2c34)C1 (some centres unmarked) [Compound 626] | > 5.30 |
| C[C@H](O)[C@H]1[C@@H](C)Oc2c(Cl)c(-c3ccc(F)c4sc(N)c(C#N)c34)c(F)c3nc(OC[C@@]45CCCN4C[C@H](F)C5)nc(c23)N1CC(F)F [Compound 911] | > 5.30 |
| C[C@H]1CN(CC(F)F)c2nc(OC[C@@]34CCCN3C[C@H](F)C4)nc3c(F)c(-c4ccc(F)c5sc(N)c(C#N)c45)c(Cl)c(c23)O1 [Compound 1021] | > 5.30 |
| CC1Oc2c(Cl)c(-c3ccc(F)c4sc(N)c(C#N)c34)c(F)c3nc(OC[C@@]45CCCN4C[C@H](F)C5)nc(c23)N(C2CC2)C1C (some centres unmarked) [Compound 929] | > 5.30 |
| Cn1nc(N)cc1CN1CCOc2c(Cl)c(-c3ccc(F)c4sc(N)c(C#N)c34)c(F)c3nc(OC[C@@]45CCCN4C[C@H](F)C5)nc1c23 [Compound 770] | > 5.30 |
| N#Cc1c(N)sc2c(F)ccc(-c3c(Cl)c4c5c(nc(OC[C@@]67CCCN6C[C@H](F)C7)nc5c3F)N(C3CCCC3)CCO4)c12 [Compound 639] | > 5.30 |
